# Measured on: T1, human IL-23R (hIL-23R), custom construct with C-terminal avi and his tags, biotinylated (human, UniProt Q5VWK5 24-355, limits assumed, enzymatically biotinylated via the avi-tag)
# T1 construct: immobilized on streptavidin tips in BLI, labeled target in FACS; also called human IL-23 receptor
# T1 sequence (looked up): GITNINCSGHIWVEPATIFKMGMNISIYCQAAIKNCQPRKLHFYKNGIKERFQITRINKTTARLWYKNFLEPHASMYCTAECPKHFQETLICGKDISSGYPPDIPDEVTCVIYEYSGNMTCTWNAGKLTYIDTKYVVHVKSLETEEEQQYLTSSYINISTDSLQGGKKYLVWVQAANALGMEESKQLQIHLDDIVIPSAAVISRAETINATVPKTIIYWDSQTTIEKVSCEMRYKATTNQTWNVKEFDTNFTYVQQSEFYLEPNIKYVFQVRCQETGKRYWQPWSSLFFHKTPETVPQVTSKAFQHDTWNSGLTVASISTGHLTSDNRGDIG
# Test: biolayer interferometry titration, biotinylated hIL-23R immobilised on streptavidin tips
Measured attribute: pKd
Scale explanation: pKd corresponds to minus log10 of a concentration expressed in moles per litre.

Sure, the documented pKd for B08 (designed binder) NLWQIFYVLNTIYKRTGDPTAKKLNKALREALKKHDEKATKELAKKATKYIRS is 10.34
